test: Oral PK in SD rats; type: in vivo; conditions: male, rat, plasma, 5 mg/kg oral, read-out: Exposure in SD Rat, Cmax
observation.type: Cmax (ng/mL)
Value expressed in ng/mL; do not type the unit.

Record CCS(=O)(=O)c1ccc(Cc2nc3c(Cl)c(-c4ccccc4OC(F)(F)F)c(Cl)cc3[nH]2)c(Cl)c1 [Compound 1] . Reported Cmax: 446

----------
Experiment: Liver microsomal stability, mouse
Assay type: in vitro ADME
Details: liver microsomes, pH 7.4, read-out: Liver microsomal stability, t1/2, Mouse
Experimental: The compound was mixed with 0.5 mg/ml human liver microsome (Thermal Fisher) at a final concentration of 1 µM in 100 mM potassium phosphate buffer, pH 7.4. The reactions were initiated by the addition of 1 mM NADPH. Samples in duplicate were incubated at 37 °C with mixing. […] Peak areas were measured to calculate half-life according to the formula t1/2 = − 0.693/slope of linear regression analysis of ln [concentration] versus incubation time. […]
observation.type: half-life at 1 µM
The answer consists of two parts: a number and, after it, its unit.

compound.structure.string	half-life at 1 µM
CCS(=O)(=O)c1ccc(Cc2nc3c(Cl)c(N4CCC(F)(F)CC4)c(Cl)cc3[nH]2)cc1	7.8 min

Record CCS(=O)(=O)c1ccc([C@H](CCO)c2nc3c(Cl)c(N4CCC(F)(F)CC4)c(Cl)cc3[nH]2)cc1 . Reported half-life at 1 µM: 6.2 min
